target: Orexin/Hypocretin receptor type 1 (Homo sapiens, UniProt O43613); experiment: Binding affinity to orexin receptor 1 (unknown origin)
pKi: −log10 of the molar value.
quantity_measured: pKi

CC1(C)OC[C@H](NC(=O)Nc2ccc(Br)cc2Br)[C@H](c2ccccc2)O1    5.78
Cc1c(S(=O)(=O)Cc2ccc(F)cc2)c2ccccn2c1CC(=O)N(C)Cc1ccc(F)cc1    5.36
Cc1nc(C(=O)N2CCCC[C@H]2CNC(=O)c2cccc3occc23)c(-c2ccc(F)cc2)s1    9.52
CN(C)c1ccc(NC(=O)Nc2ccnc3c(F)ccc(F)c23)cc1    8.06
CCN(CC)c1ccc(NC(=O)c2oc3ccccc3c2C)cc1    7.44
Cc1ccc(-n2nccn2)c(C(=O)N2CCC[C@@H](COc3nccc4ccccc34)[C@@H]2C)c1    9.30
Cc1cc(NC(=O)Nc2ccc(N(C)C)cc2)c2cc(F)cc(F)c2n1    7.66
Cc1nc(C(=O)N2CCC[C@H]2Cc2nnc(-c3ccccc3)o2)c(-c2ccccc2F)s1    8.96
Cc1ccc(-n2nccn2)c(C(=O)N2CCC[C@@H](COc3ccccn3)[C@@H]2C)c1    9.00
[3H]c1cccc([3H])c1-c1nnc(C[C@@H]2CCCN2C(=O)c2nc(C)sc2-c2ccccc2F)o1    8.96

----------
Target: Orexin/Hypocretin receptor type 1 (Homo sapiens) (UniProt O43613)
Sequence (whole entry): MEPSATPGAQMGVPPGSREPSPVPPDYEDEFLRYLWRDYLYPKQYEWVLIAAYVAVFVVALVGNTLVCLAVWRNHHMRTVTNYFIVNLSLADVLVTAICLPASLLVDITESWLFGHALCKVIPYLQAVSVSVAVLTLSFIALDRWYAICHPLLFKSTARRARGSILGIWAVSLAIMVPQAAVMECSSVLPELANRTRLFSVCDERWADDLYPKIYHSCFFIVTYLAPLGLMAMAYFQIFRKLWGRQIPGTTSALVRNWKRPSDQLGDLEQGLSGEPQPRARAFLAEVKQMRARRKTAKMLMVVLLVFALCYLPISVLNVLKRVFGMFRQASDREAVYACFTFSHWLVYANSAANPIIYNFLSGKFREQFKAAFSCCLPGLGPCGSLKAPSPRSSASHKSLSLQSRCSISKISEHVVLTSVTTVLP
Test: Binding affinity to orexin receptor 1 (unknown origin)
Each record's Kb is compared with low-valued = under 0.6 nM, mid-valued = from 0.6 nM up to 2 nM, high-valued = 2 nM and over to give its class.

Cc1nc(C(=O)N2CC3(CC3)C[C@H]2CNc2ccc(Cl)cn2)c(-c2ccccc2)s1    high-valued
COc1c(F)cccc1C(=O)N1C[C@@H](C)CC[C@H]1CNc1ccc(Br)cn1 (racemic)    mid-valued
CCCOc1ccc(C)nc1C(=O)N1C[C@@H]2C[C@@H]2C[C@H]1CNc1ncc(C(F)(F)F)cn1    low-valued
Cc1ccc(NC[C@@H]2C[C@H]3C[C@H]3CN2C(=O)c2nc(C)ccc2OCC2CC2)nc1    low-valued
CCCOc1ccc(C)nc1C(=O)N1C[C@@H]2C[C@@H]2C[C@H]1CNc1cnc(C)c(C)n1    mid-valued
Cc1cc(C)nc(NC[C@@H]2CC3(CC3)CN2C(=O)c2nc(C)sc2-c2ccccc2)n1    high-valued
CCOc1ccc(C)nc1C(=O)N1C[C@@H]2C[C@@H]2C[C@H]1CNc1ncc(C)cn1    mid-valued
CCOc1ccc(C)nc1C(=O)N1C[C@@H]2C[C@@H]2C[C@H]1CNc1ncc(C(F)(F)F)cn1    low-valued
Cc1nc(C(=O)N2CC3(CC3)C[C@H]2CNc2ncc(Cl)cn2)c(-c2ccccc2)s1    high-valued
